Molecular target: T1, MPP6, Q9NZW5
T1 sequence (Q9NZW5 125-219, limits assumed, looked up): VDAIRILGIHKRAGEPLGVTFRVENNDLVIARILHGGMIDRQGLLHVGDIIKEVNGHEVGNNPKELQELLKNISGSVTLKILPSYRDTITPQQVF
Assay: holdup assay
Parameters: key: below the threshold = too weak to quantify, mostly under pKd 3.1 to 4
Settings: plain residues with an end cap or a label only (N-terminal biotin on a linker: ttds)

| binder | pKd |
| --- | --- |
| TVASEKESVM [SLC1A5, Q15758] | below the threshold |
| PKTPPTDTSV [KIR3DL3, Q8N743] | below the threshold |
| RSLEEEESQL [GRASP, Q7Z6J2] | 3.53 |
| STLTIFETAL [ABCC4, O15439] | below the threshold |
| ERKLSSESQV [LRP4, O75096] | below the threshold |
| IYVPEAQTRL [DLGAP4, Q9Y2H0] | below the threshold |
| SSRTRRETQL [HPV16-E6, P03126] | 3.58 |
| QSARYRDTEL [TJP2, Q9UDY2] | below the threshold |
